Tested on: phenylquinone writhing (mice)
Experiment: Phenylquinone writhing test
Type: in vivo, mouse (female white)
Details: Mus musculus, po, fasted female white mice; phenylquinone i.p.; read-out: PQW ED50
Exercise: state measured ED50 for each of the compounds provided.

Inquiry: Which ED50 value belongs to O=S(=O)(c1nc2c([nH]1)/C(=C\c1ccccc1)c1ccccc1-2)C(F)(F)F [Example 3] ?
Reply text: > 81 mg/kg

Inquiry: Which ED50 value belongs to COc1ccc(C=C2c3ccccc3-c3nc(SC(F)(F)F)[nH]c32)cc1 [Example 7] ?
Reply text: > 108 mg/kg

Inquiry: Which ED50 value belongs to CC(C)Cc1ccc(C(C)C(=O)O)cc1 (stereo not drawn) [Ibuprofen, ibuprofen, reference compound] ?
Reply text: 10 mg/kg

Inquiry: Which ED50 value belongs to Fc1ccc(C=C2c3ccccc3-c3nc(SC(F)(F)F)[nH]c32)cc1 [Example 11] ?
Reply text: 21 mg/kg

Inquiry: Which ED50 value belongs to O=S(=O)(c1nc2c([nH]1)C(=Cc1ccc(F)cc1)c1ccccc1-2)C(F)(F)F [Example 13] ?
Reply text: 53.6 mg/kg

Inquiry: Which ED50 value belongs to CCCCC1C(=O)N(c2ccccc2)N(c2ccccc2)C1=O [Phenylbutazone, phenylbutazone, reference compound] ?
Reply text: 80 mg/kg

Inquiry: Which ED50 value belongs to O=S(=O)(c1nc2c([nH]1)/C(=C/c1ccccc1)c1ccccc1-2)C(F)(F)F [Example 5] ?
Reply text: 1 mg/kg

Inquiry: Which ED50 value belongs to FC(F)(F)Sc1nc2c([nH]1)/C(=C/c1ccccc1)c1ccccc1-2 [Example 2] ?
Reply text: 35 mg/kg

Inquiry: Which ED50 value belongs to [O-][S+](c1nc2c([nH]1)C(=Cc1ccc(F)cc1)c1ccccc1-2)C(F)(F)F (stereo not drawn) [Example 12] ?
Reply text: 0.76 mg/kg

Source: patent US4548943A
